A collection of binders and their measured binding signal
- MEASURED_ON: TDP-43 (Homo sapiens, UniProt Q13148 1-414)
- Sequence (Q13148 whole entry): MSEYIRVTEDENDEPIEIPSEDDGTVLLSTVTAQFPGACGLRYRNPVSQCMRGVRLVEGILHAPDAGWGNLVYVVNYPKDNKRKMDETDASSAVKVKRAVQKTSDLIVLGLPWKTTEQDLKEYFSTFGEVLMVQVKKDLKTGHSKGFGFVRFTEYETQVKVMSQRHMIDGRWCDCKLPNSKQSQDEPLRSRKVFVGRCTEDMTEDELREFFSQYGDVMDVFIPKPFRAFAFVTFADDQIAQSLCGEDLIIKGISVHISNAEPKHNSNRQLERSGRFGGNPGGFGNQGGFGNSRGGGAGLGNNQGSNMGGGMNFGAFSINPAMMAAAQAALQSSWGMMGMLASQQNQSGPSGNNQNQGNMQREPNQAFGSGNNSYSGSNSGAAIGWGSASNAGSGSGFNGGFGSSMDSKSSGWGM
- MEASUREMENT_PROTOCOL: RNA Bind-n-Seq with designed 260-mer pool; 25 mM Tris-HCl, 150 mM KCl, 3 mM MgCl2, BSA (printed 500 mg/mL), 20 units/mL SUPERase IN; pH not stated; 500 nM RNA pool, 1 h, 4 C; TDP-43 5, 50, 500 nM; high values mean tight binding
- EXPERIMENTAL_CONTEXT: protein: recombinant; tags: SBP (GST cleaved off with PreScission; pGEX-GST-SBP)
In all, about 9,900 sequences were measured (“r (bound/input frequency ratio)”: median about 0.7, highest 2% from about 6.5 on). The sample holds the highest values, similar sequences and a random draw of the others, so the mix is not that of the screen.

Recorded results for 3 binders are shown here.
{"columns": ["BINDER", "binding signal"],
 "data": [
  ["ENSMUSG00000058297.470|Spock2|39:43 (ssRNA) RNA: GGGAGUUCUACAGUCCGACGAUCGCUUCGAUAUCCGCAUGCUAUGCUCCCGUUCCCUUGUUGCGGGCAGGAGAGGUAGGGCACACAUGGAAAGAGUUCAACCAAAUUACGGCAGCACCACAUCUUGCCGAGCCCUGGAGCUGCCCUACUAAGAGCCUCCUUAGCCCUGGGUGCUGGGAAGGAUGGUGUACGUUGGGGAAGUUUGAGGUUGGAGAGAGUAAAUGUGCCUUGAGAGACCACUCAGAGGUCCCAGGAGGAACGGGGGCGGGGCUUAGCCUGGGAGUUCUGGCAGGAGGCAAAGUUGCUCUUGCGGUCGCACUAGUGUGGAAUUCUCGGGUGUCAAGG", "5.26 R (bound/input frequency ratio)"],
  ["ENSMUSG00000058297.474|Spock2|15:19 (ssRNA) RNA: GGGAGUUCUACAGUCCGACGAUCGCUUCGAUAUCCGCAUGCUAAGGAGAGGUAGGGCACACAUGGAAAGAGUUCAACCAAAUUACGGCAGCACCACAUCUUGCCGAGCCCUGGAGCUGCCCUACUAAGAGCCUCCUUAGCCCUGGGUGCUGGGAAGGAUGGUGUACGUUGGGGAAGUUUGAGGUUGGAGAGAGUAAAUGUGCCUUGAGAGACCACUCAGAGGUCCCAGGAGGAACGGGGGCGGGGCUUAGCCUGGGAGUUCUGGCAGGAGGCAAAGUUGGUGAGAGUCCUGGGACAUCUUACCCUCUUGCGGUCGCACUAGUGUGGAAUUCUCGGGUGUCAAGG", "3.2 R (bound/input frequency ratio)"],
  ["ENSMUSG00000058297.468|Spock2 (ssRNA) RNA: GGGAGUUCUACAGUCCGACGAUCGCUUCGAUAUCCGCAUGCUACGUGUUCCUGCCUGCUCCCGUUCCCUUGUUGCGGGCAGGAGAGGUAGGGCUGUGUUGGAAAGAGUUCAACCAAAUUACGGCAGCACCACAUCUUGCCGAGCCCUGGAGCUGCCCUACUAAGAGCCUCCUUAGCCCUGGGUGCUGGGAAGGAUGGUGUACGUUGGGGAAGUUUGAGGUUGGAGAGAGUAAAUGUGCCUUGAGAGACCACUCAGAGGUCCCAGGAGGAACGGGGGCGGGGCUUAGCCUGGGAGUUCUGGCAGCUCUUGCGGUCGCACUAGUGUGGAAUUCUCGGGUGUCAAGG", "3.47 R (bound/input frequency ratio)"]
]}

Note: attention shifts to another entry.
# binding signal (binder: ENSMUSG00000058297.473|Spock2|21:25 (ssRNA) RNA: GGGAGUUCUACAGUCCGACGAUCGCUUCGAUAUCCGCAUGCUAGCGGGCAGGAGAGGUAGGGCACACAUGGAAAGAGUUCAACCAAAUUACGGCAGCACCACAUCUUGCCGAGCCCUGGAGCUGCCCUACUAAGAGCCUCCUUAGCCCUGGGUGCUGGGAAGGAUGGUGUACGUUGGGGAAGUUUGAGGUUGGAGAGAGUAAAUGUGCCUUGAGAGACCACUCAGAGGUCCCAGGAGGAACGGGGGCGGGGCUUAGCCUGGGAGUUCUGGCAGGAGGCAAAGUUGGUGAGAGUCCUGGGACAUCUCUUGCGGUCGCACUAGUGUGGAAUUCUCGGGUGUCAAGG ) is 3.59 R (bound/input frequency ratio)
